# experiment: Plasma clearance in rat
# Type: ADME, organism-based
Provide the reported clearance of each item.
Numbers only, in mL/min/kg.

| structure smiles string | clearance (mL/min/kg) |
| --- | --- |
| Cc1cc(-c2ccc(N3C[C@H](Cn4ccnn4)OC3=O)cc2F)on1 | 5 |

Now consider the entry below.
Fill blank: measured clearance of the molecule Cc1cn(C[C@H]2CN(c3ccc(-c4cc(C)no4)c(F)c3)C(=O)O2)nn1 is ____.
5

###

Could you please report measured Ki for the items listed next?
# system: Amine oxidase [flavin-containing] A (Homo sapiens, UniProt P21397)
# Sequence (P21397 whole entry): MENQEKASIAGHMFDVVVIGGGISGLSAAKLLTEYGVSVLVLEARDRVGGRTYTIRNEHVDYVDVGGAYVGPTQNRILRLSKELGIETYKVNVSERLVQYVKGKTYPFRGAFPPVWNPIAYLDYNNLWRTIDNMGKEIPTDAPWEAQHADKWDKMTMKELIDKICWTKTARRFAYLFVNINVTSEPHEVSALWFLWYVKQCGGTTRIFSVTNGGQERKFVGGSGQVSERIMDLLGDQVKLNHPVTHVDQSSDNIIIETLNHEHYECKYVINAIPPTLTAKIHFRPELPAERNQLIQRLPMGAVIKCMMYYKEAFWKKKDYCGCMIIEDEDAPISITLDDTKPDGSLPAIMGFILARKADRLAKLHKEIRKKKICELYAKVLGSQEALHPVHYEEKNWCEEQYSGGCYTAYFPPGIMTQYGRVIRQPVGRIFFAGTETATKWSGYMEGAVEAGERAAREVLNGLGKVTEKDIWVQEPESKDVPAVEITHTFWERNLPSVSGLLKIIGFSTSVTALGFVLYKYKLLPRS
# experiment: Inhibition human liver MAOA activity

| structure smiles string | Ki |
| --- | --- |
| Cc1cc(-c2ccc(N3C[C@H](CNc4ccon4)OC3=O)cc2F)on1 | 0.42 µmol |
| CC(=O)NC[C@H]1CN(c2ccc(N3CCOCC3)c(F)c2)C(=O)O1 | 20 µmol |
| Cc1cc(-c2ccc(N3C[C@H](Cn4ccnn4)OC3=O)cc2F)on1 | 2.9 µmol |
| Cc1cn(C[C@H]2CN(c3ccc(-c4cc(C)no4)c(F)c3)C(=O)O2)nn1 | 22.6 µmol |

Then this compound:
Reported Ki for CC(=O)NC[C@H]1CN(c2ccc(-c3cc(C)no3)c(F)c2)C(=O)O1 : what is it?
0.95 µmol

###

# experiment: Oral bioavailability in rat at 40 mg/kg
# Format: ADME, organism-based
# details: in vivo
For each of the compounds below, state its bioavailability.
Give bare numbers, in %.

| structure smiles string | bioavailability, % |
| --- | --- |
| Cc1cc(-c2ccc(N3C[C@H](Cn4ccnn4)OC3=O)cc2F)on1 | 82 |

Moving on to another compound below.
Fill blank: measured bioavailability of the compound Cc1cn(C[C@H]2CN(c3ccc(-c4cc(C)no4)c(F)c3)C(=O)O2)nn1 is ____.
87
